- Assay: Genotoxicity in Salmonella typhimurium TA1535 harboring pSK1002 assessed as survival at 0.0005 mg/ml in absence of Sprague-Dawley rat liver S9 fraction after by SOS/umu assay relative to control
- Format: toxicity, organism-based
- Measurement Parameters: salmonella enterica subsp. enterica serovar typhimurium, read-out: Survival
Readout Label: viability at 0.0005 mg/ml
Could you kindly put the unit after your number?

1) OC(CCN1CCN(C(c2ccccc2)c2ccccc2)CC1)c1ccc(F)cc1 (stereo not given) : 100%
2) OC(CCN1CCN(C(c2ccccc2)c2ccccc2)CC1)c1ccc(F)c(Cl)c1 (stereo not given) : 117%
3) OC(CCN1CCN(C(c2ccccc2)c2ccccc2)CC1)c1ccc(F)c(F)c1 (stereo not given) : 110%
4) OC(CCN1CCN(C(c2ccccc2)c2ccccc2)CC1)c1ccc(Br)cc1 (stereo not given) : 108%

# context switch: different compound, same viability at 0.0005 mg/ml
Query: viability at 0.0005 mg/ml; subject: OC(CCN1CCN(C(c2ccccc2)c2ccccc2)CC1)c1ccc(Cl)cc1 (stereo not given)
110%

---

- Assay: Genotoxicity in Salmonella typhimurium TA1535 harboring pSK1002 assessed as survival at 0.002 mg/ml in absence of Sprague-Dawley rat liver S9 fraction after by SOS/umu assay relative to control
- Format: toxicity, organism-based
- Measurement Parameters: salmonella enterica subsp. enterica serovar typhimurium, read-out: Survival
Readout Label: viability at 0.002 mg/ml (%)
Answers are plain numbers, in %.

1) OC(CCN1CCN(C(c2ccccc2)c2ccccc2)CC1)c1ccc(F)c(F)c1 (stereo unspecified) : 104
2) O=[N+]([O-])c1ccc(N2CCN(CCC(O)c3ccc(F)c4ccccc34)CC2)cc1 (stereo unspecified) : 87
3) Oc1ccc(C(O)CCN2CC=C(c3ccc(F)cc3)CC2)cc1 (stereo unspecified) : 98.6

Would you be so kind as to report viability at 0.002 mg/ml for each listed record?
1. Nc1ccc(N2CCC(NCCC(O)c3ccc(F)c4ccccc34)CC2)c(C(F)(F)F)c1 (stereo unspecified)
2. COc1ccccc1C1=CCN(CCC(O)c2ccc(F)c3ccccc23)CC1 (stereo unspecified)
3. OC(CCN1CCN(C(c2ccccc2)c2ccccc2)CC1)c1ccc(F)c2ccccc12 (stereo unspecified)
4. OC(CCN1CCN(C(c2ccccc2)c2ccccc2)CC1)c1ccc(F)c(Cl)c1 (stereo unspecified)
5. N#Cc1ccc(C(O)CCN2CC=C(c3ccc(F)cc3)CC2)cc1 (stereo unspecified)
6. OC(CCN1CCN(c2ccc(F)cc2)CC1)c1ccc(F)c2ccccc12 (stereo unspecified)
7. N#Cc1ccc(N2CCC(NCCC(O)c3ccc(F)c4ccccc34)CC2)c(C(F)(F)F)c1 (stereo in doubt; 72)

1. 150
2. 86.6
3. 77.8
4. 103
5. 103
6. 110
7. 110

Query: viability at 0.002 mg/ml; subject: COc1ccccc1N1CCN(CCC(O)c2ccc(F)cc2)CC1 (stereo in doubt; 66)
114

---

- Assay: Genotoxicity in Salmonella typhimurium TA1535 harboring pSK1002 assessed as umu gene induction at 0.008 mg/ml in presence of Sprague-Dawley rat liver S9 fraction after by SOS/umu assay relative to control
- Type: toxicity, organism-based
- Measurement Parameters: salmonella enterica subsp. enterica serovar typhimurium, read-out: FC
Readout Label: fold induction at 0.008 mg/ml
Numbers only.

These solved cases illustrate the format of a correct answer.
1) N#Cc1ccc(N2CCC(NCCC(O)c3ccc(F)c4ccccc34)CC2)c(C(F)(F)F)c1 (stereo in doubt; 72) : 1.3
2) OC(CCN1CCN(C(c2ccccc2)c2ccccc2)CC1)c1ccc(Cl)cc1 (configuration not stated) : 0.9
3) OC(CCN1CCN(c2ccc(F)cc2)CC1)c1ccc(F)c2ccccc12 (configuration not stated) : 0.7
4) O=[N+]([O-])c1ccc(N2CCN(CCC(O)c3ccc(F)c4ccccc34)CC2)cc1 (configuration not stated) : 0.6
5) Oc1ccc(C(O)CCN2CC=C(c3ccc(F)cc3)CC2)cc1 (configuration not stated) : 0.6
6) COC(=O)c1ccc(C(O)CCN2CC=C(c3ccc(F)cc3)CC2)cc1 (configuration not stated) : 1

# context switch: different compound, same fold induction at 0.008 mg/ml
Query: fold induction at 0.008 mg/ml; subject: OC(CCN1CCN(C(c2ccccc2)c2ccccc2)CC1)c1ccc(F)c(F)c1 (configuration not stated)
0.8
